Listed next: entries and their corresponding inhibition at 100 µM.
- System: non-small lung cancer cell line A549
- assay name: MTT assay, compounds related to LD030 on A549 cells
- Format: cell-based
- condition: Homo sapiens, A549; 100 μM, 48 hours; read-out: Effects on A549 Cells (inhibitory percentage)
Provide the measurement as a number trailed by its unit.

{"compound": "CC(=O)O[C@H]1CC[C@]2(C)C3=C(CC[C@H]2C1(C)C)[C@]1(C)CCC(C(C)CCC(O)C(C)(C)O)[C@@]1(C)CC3 (some centres unmarked)", "quantity kind": "inhibition at 100 µM", "reported": "45.5%"}

Next:
Return reported inhibition at 100 µM. Input compound: CC(=O)O[C@H]1CC[C@]2(C)C3=C(CC[C@H]2C1(C)C)[C@]1(C)CCC(C(C)CCC2OC2(C)C)[C@@]1(C)CC3 (some centres unmarked)
39.8%
